Each entry below carries its recorded EC50.
molecular target: Peroxisome proliferator-activated receptor gamma/Nuclear receptor coactivator 2 (Homo sapiens, UniProt P37231); format: functional;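 also: agonist potency for raising coactivator recruitment to the receptor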
Sequence (P37231 whole entry): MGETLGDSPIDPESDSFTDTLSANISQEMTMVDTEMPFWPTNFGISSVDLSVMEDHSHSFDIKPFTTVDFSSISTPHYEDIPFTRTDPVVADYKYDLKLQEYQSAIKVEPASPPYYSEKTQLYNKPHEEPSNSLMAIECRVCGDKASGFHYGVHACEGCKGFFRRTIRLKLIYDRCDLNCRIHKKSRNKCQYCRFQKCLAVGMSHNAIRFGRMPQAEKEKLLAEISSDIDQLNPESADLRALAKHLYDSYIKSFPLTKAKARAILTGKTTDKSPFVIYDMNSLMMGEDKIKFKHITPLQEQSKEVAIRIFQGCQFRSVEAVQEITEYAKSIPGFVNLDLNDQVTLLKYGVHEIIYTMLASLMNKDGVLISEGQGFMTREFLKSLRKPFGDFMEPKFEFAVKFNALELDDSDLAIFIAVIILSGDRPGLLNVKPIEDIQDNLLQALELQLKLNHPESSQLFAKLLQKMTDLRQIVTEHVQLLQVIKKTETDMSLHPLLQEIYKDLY
Sequence (Q15596 whole entry, further chain): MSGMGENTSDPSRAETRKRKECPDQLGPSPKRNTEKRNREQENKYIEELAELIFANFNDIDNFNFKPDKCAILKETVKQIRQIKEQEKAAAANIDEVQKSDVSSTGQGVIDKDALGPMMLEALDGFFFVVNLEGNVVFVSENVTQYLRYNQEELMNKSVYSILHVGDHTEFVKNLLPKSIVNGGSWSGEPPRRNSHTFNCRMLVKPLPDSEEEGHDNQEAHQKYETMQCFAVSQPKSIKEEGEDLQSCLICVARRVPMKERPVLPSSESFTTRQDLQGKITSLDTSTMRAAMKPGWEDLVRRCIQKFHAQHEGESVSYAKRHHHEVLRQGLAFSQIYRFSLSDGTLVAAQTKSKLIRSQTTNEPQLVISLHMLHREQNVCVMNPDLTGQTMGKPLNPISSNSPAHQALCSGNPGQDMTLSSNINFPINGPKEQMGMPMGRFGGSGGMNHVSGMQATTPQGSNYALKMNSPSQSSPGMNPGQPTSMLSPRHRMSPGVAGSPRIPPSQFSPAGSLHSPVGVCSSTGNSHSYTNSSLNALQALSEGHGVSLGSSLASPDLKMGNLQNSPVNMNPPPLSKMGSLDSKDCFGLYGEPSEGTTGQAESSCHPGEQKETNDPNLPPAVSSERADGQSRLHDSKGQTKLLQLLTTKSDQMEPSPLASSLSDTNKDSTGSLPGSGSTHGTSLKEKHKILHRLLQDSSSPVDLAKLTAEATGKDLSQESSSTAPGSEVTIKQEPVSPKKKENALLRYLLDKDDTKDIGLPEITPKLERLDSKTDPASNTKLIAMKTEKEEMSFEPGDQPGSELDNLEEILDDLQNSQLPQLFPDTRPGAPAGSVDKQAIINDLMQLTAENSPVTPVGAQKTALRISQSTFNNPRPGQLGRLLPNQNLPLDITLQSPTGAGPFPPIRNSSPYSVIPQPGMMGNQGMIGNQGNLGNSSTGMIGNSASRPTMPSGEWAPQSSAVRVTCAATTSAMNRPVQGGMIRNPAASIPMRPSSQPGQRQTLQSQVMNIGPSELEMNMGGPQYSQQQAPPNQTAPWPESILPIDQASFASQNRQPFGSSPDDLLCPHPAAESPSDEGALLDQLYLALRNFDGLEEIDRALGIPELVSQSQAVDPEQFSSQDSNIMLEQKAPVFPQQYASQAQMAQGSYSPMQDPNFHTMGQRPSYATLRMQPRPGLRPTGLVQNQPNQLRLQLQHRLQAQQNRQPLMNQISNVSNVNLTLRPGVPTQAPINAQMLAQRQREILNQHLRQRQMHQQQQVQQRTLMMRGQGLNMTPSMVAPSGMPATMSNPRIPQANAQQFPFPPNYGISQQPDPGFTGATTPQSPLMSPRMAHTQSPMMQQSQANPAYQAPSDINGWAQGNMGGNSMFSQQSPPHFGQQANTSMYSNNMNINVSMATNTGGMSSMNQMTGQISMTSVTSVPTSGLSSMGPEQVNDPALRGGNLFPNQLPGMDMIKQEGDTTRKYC

input: Look at this molecule and give its reported EC50. "O=c1oc2ccccc2cc1-c1cn2ccccc2n1"
output: > 79.4 µM (not active)

input: Any idea what its EC50 is? The molecule is CC(C)N1CCN(Cc2ccc(Oc3ncccn3)cc2)CC1CCO (centres undefined)
output: > 79.4 µM (not active)

input: Fill blank: measured EC50 of the molecule OC(C#CCN1CCCC1)(c1ccccc1)c1cccc(F)c1 (centres undefined) is ____.
output: > 79.4 µM (not active)

input: Name the recorded EC50 for "Cc1ccc(NC(=O)CSc2nnc(-c3ccc(S(=O)(=O)N4CCCC4)cc3)o2)cc1C" .
output: 39.8 µM (not active)
